Reference for the values: PubChem BioAssay AID602321

# Tested on: APEH
# ASSAY_NOTES: serine hydrolase off-target inhibition in mouse brain, late-stage follow-up, selectivity assay for DAGLb inhibitor project, biochemical, gel-based competitive ABPP, mouse brain membrane, set 3 (AID 602321)
# DETAILS: gel-based competitive ABPP fluorescence, APEH, at 10 µM, stronger effect = higher value
MEASURED_PARAMETER: inhibition (%)

Solved cases (3 shown):
O=C(N1CCCCC1c1ccccc1)n1cc(-c2ccc(-c3ccc(CO)cc3)cc2)nn1 (centres undefined) :: 25
O=C(O)c1cccc(-c2ccc(-c3cn(C(=O)N4CCCCC4c4ccccc4)nn3)cc2)c1 (centres undefined) :: 98
NC(=O)c1ccc(-c2ccc(-c3cn(C(=O)N4CCCCC4c4ccccc4)nn3)cc2)cc1 (centres undefined) :: 25

[P] O=C(O)c1ccc(-c2ccc(-c3cn(C(=O)N4CCCCC4CCc4ccccc4)nn3)cc2)cc1 (centres undefined)
[Q] O=C(c1ccc(-c2ccc(-c3cn(C(=O)N4CCCCC4c4ccccc4)nn3)cc2)cc1)N1CCCCC1 (centres undefined)
Input: Could you tell me which of these two has the smaller inhibition figure? First: P Second: Q Refer to your chosen entry by its label in the reply.
Output: P

[a] O=C(N1CCCCC1Cc1ccccc1)n1cc(-c2ccc(-c3cccc(CO)c3)cc2)nn1 (centres undefined)
[b] O=C(N1CCCCC1c1ccccc1)n1cc(-c2ccc(-c3ccccc3CO)cc2)nn1 (centres undefined)
Input: API: POST /compare with a and b ; response names the item with higher inhibition. Reply briefly: the label of your chosen item.
Output: b
(b: 45%, a: 0%)
